Test: MultiTox-Fluor Cytotoxicity Assay - LYMP1-003 - Live Cells (AID 962);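 further: cells exposed to compound for 16 hours at 37 °C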
Conditions: LYMP1-003 lymphoblastoid cells, MultiTox-Fluor live-cell protease fluorescence; series mostly up to 92.2 µM
Active and inactive are the calls of the source. The call rests on the fitted dose curve; in most records, active means well fitted cell-killing curve with a large enough effect; inconclusive means small, poorly fitted or top-dose-only effect; inactive means flat fitted curve, though single readings scatter.
Classes used: active, inactive

>  <compound>
CN(C)[C@@H]1C(=O)C(C(N)=O)=C(O)[C@@]2(O)C(=O)C3=C(O)c4c(O)cccc4[C@@](C)(O)[C@H]3[C@H](O)[C@@H]12

>  <class-assignment>
inactive

$$$$
>  <compound>
O=[N+]([O-])c1c2ccccc2cc2ccccc12

>  <class-assignment>
inactive

$$$$
>  <compound>
CCOP(=O)(NC(C)C)Oc1ccc(SC)c(C)c1 (stereo not given)

>  <class-assignment>
inactive

$$$$
>  <compound>
CCOCCOC(C)=O

>  <class-assignment>
inactive

$$$$
>  <compound>
c1cc2ccc3cccc4ccc(c1)c2c34

>  <class-assignment>
inactive

$$$$
>  <compound>
O=[N+]([O-])c1c(Cl)c(Cl)cc(Cl)c1Cl

>  <class-assignment>
inactive

$$$$
>  <compound>
Nc1ccc(Cl)cc1N

>  <class-assignment>
inactive

$$$$
>  <compound>
O=C(O)COc1ccccc1

>  <class-assignment>
inactive

$$$$
>  <compound>
CC(C)(O)C(=O)Nc1ccc([N+](=O)[O-])c(C(F)(F)F)c1

>  <class-assignment>
inactive

$$$$
>  <compound>
COC(C)(C)CCCC(C)C/C=C/C(C)=C/C(=O)OC(C)C (stereo not given)

>  <class-assignment>
inactive

$$$$
>  <compound>
CC(=O)[O][Hg][c]1ccccc1

>  <class-assignment>
active

$$$$
>  <compound>
CCCCCCCCc1ccc(O)cc1

>  <class-assignment>
inactive

$$$$
>  <compound>
O=C(O)C(Cl)Cl

>  <class-assignment>
inactive

$$$$
>  <compound>
OCCCBr

>  <class-assignment>
inactive

$$$$
>  <compound>
O=[N+]([O-])c1cc([N+](=O)[O-])c2ccccc2c1

>  <class-assignment>
inactive

$$$$
>  <compound>
Cc1cc(O)ccc1Cl

>  <class-assignment>
inactive

$$$$
>  <compound>
C=CC(=O)NCNC(=O)C=C

>  <class-assignment>
inactive

$$$$
>  <compound>
C1CCC(NC2CCCCC2)CC1

>  <class-assignment>
inactive

$$$$
>  <compound>
Nc1ccc(Sc2ccc(N)cc2)cc1

>  <class-assignment>
inactive

$$$$
>  <compound>
CCCCC(CC)COC(=O)c1ccccc1C(=O)OCC(CC)CCCC (stereo not given)

>  <class-assignment>
inactive

$$$$
